Biological target: T1, QP273 (cynoSIRPα2-flag-his T-557-14) (cynomolgus)
T1 construct: also called cynomolgus SIRPα (QP273)
T1 chain: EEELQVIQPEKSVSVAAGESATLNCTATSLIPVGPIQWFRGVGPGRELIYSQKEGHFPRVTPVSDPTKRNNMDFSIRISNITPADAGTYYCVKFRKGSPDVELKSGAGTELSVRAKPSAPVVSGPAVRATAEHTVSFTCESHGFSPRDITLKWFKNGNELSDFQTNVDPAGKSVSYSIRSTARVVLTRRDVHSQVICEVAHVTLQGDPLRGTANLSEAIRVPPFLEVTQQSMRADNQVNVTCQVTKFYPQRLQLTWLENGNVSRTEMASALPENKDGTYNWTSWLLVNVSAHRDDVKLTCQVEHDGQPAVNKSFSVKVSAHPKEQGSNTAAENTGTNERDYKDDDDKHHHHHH
Test: binding ELISA, antigen coated
Can you tell me EC50 for the items I'm about to list?
Unit ng/mL implied. Number only.

Challenge: Annotate the binder QP2561594 (antibody, human IgG4, V domains shown, Human IgG4 heavy constant region and kappa CL) VH: QVQLVQSGAEVKKPGASVKVSCKASGYTFTNYWINWVRQAPGQGLEWIAMIDPSDSETHYNQIFKDRATLTTDTSTSTAYMELRSLRSDDTAVYYCAMDYGSLYAMDYWGRGTLVTVSS VL: DIVLTQSPDSLAVSLGERATINCRASKSVSSSGYNYIFWYQQKPGQPPKLLIYLASNLDSGVPDRFSGSGSGTDFTLTISSLQAEDVAVYYCQHSRDLPTFGQGTKLEIK with its measured EC50.
Response given: 2.35

Challenge: Annotate the binder QP256279 (antibody, human IgG4, V domains shown, Human IgG4 heavy constant region and kappa CL) VH: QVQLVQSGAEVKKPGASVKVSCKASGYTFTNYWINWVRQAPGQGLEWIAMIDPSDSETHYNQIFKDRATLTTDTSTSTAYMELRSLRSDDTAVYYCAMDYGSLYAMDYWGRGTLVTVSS VL: DIVLTQSPDSLAVSLGERATINCRASQSVRSSGYNWIFWYQQKPGQPPKLLIYLASNRDSGVPDRFSGSGSGTDFTLTISSLQAEDVAVYYCQHSRELPTFGQGTKLEIK with its measured EC50.
Response given: 0.721

Challenge: Annotate the binder QP2561581 (antibody, human IgG4, V domains shown, Human IgG4 heavy constant region and kappa CL) VH: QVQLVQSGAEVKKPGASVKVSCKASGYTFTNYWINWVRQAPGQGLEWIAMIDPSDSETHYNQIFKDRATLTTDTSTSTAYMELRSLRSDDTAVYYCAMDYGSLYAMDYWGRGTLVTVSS VL: DIVLTQSPDSLAVSLGERATINCRASKSVSSSGYNYIFWYQQKPGQPPKLLIYLASNLDPGVPDRFSGSGSGTDFTLTISSLQAEDVAVYYCQHSRELPTFGQGTKLEIK with its measured EC50.
Response given: 0.921
